Values were extracted from patent US10035800B2.

- assay_system: BRD4 (BDII_E352-M457) (Homo sapiens)
- Construct: protocol; made in house
- assay_name: TR-FRET bromodomain binding assay, second bromodomain of BRD4
- test_parameters: TR-FRET assay protocol G (compound 0.92 μM-15 pM); 30 nM probe
observation_type: Ki (nM)
Report the value in nM with no unit label.

For CC(C)c1ccc(NC(=O)N2Cc3c[nH]c4c(=O)n(C)cc(c34)-c3cc(CS(C)(=O)=O)ccc32)cc1 the molecule record lists Ki as 3.24

For Cn1cc2c3c(c[nH]c3c1=O)CN(C1CCC(N)CC1)c1ccc(CS(C)(=O)=O)cc1-2 (mixture of isomers) the molecule record lists Ki as 5

For COCCCC1c2c[nH]c3c(=O)n(C)cc(c23)-c2cc(CS(C)(=O)=O)ccc2N1c1ccc(F)cc1F (centres unmarked) the molecule record lists Ki as 0.97

For Cn1cc2c3c(c[nH]c3c1=O)CN(c1ccc(F)cc1)c1ccc(CC#N)cc1-2 the molecule record lists Ki as 1.27

For COc1ccccc1OC(=O)N1Cc2c[nH]c3c(=O)n(C)cc(c23)-c2cc(CS(C)(=O)=O)ccc21 the molecule record lists Ki as 2.53

For CN1CCN(C(=O)C2c3c[nH]c4c(=O)n(C)cc(c34)-c3cc(CS(C)(=O)=O)ccc3N2c2ccc(F)cc2)CC1 (centres unmarked) the molecule record lists Ki as 57.8

For COc1cccc(CC(=O)N2Cc3c[nH]c4c(=O)n(C)cc(c34)-c3cc(CS(C)(=O)=O)ccc32)c1 the molecule record lists Ki as 26.2

For CCOC(=O)C1c2c[nH]c3c(=O)n(C)cc(c23)-c2cc(C)cnc2N1c1ccc(F)cc1 (centres unmarked) the molecule record lists Ki as 24.7

For CC(=O)OCCCCCCC1c2c[nH]c3c(=O)n(C)cc(c23)-c2cc(CS(C)(=O)=O)ccc2N1c1ccc(F)cc1F (centres unmarked) the molecule record lists Ki as 2

For Cn1cc2c3c(c[nH]c3c1=O)CN(c1ccc(F)cc1)c1ncc(F)cc1-2 the molecule record lists Ki as 1.14

For Cn1cc2c3c(c[nH]c3c1=O)C(C(=O)NC1CCCCC1)N(c1ccc(F)cc1F)c1ccc(CS(C)(=O)=O)cc1-2 (centres unmarked) the molecule record lists Ki as 77.3

For Cn1cc2c3c(c[nH]c3c1=O)CN(/C=C(/C=C/c1ccccc1)c1ccccc1)c1c(F)cc(F)cc1-2 the molecule record lists Ki as 90.6

For CCOC(=O)C1CCC(CNC(=O)N2Cc3c[nH]c4c(=O)n(C)cc(c34)-c3cc(CS(C)(=O)=O)ccc32)CC1 (centres unmarked) the molecule record lists Ki as 37

For Cn1cc2c3c(c[nH]c3c1=O)CN(CC1CC1)c1c(F)cc(F)cc1-2 the molecule record lists Ki as 2.21

---

- assay_system: BRD4 (BDI_K57-E168) (Homo sapiens)
- Construct: BD1: amino acids K57-E168; made in house
- assay_name: TR-FRET bromodomain binding assay, first bromodomain of BRD4
- test_parameters: TR-FRET assay protocol E (compound 9.19 μM-150 pM); 100 nM probe
Give pKi for every item shown.
Scale explanation: pKi corresponds to minus log10 of a concentration expressed in moles per litre.

For Cn1cc2c3c(c[nH]c3c1=O)C(Cc1ccccc1)Nc1ccc(CS(C)(=O)=O)cc1-2 (stereo not drawn) [Example 16] the molecule record lists pKi as 7.03

For CC(C)CC1Nc2ccc(CS(C)(=O)=O)cc2-c2cn(C)c(=O)c3[nH]cc1c23 (racemic) [Example 19] the molecule record lists pKi as 6.61

For Cn1cc2c3c(c[nH]c3c1=O)C(CCc1ccccc1)Nc1ccc(CS(C)(=O)=O)cc1-2 (stereo not drawn) [Example 18] the molecule record lists pKi as 6.84

For Cn1cc2c3c(c[nH]c3c1=O)CN(CC1CC1)c1ncc(S(N)(=O)=O)cc1-2 [Example 10] the molecule record lists pKi as 8.16

For COC(=O)CCC1Nc2ccc(CS(C)(=O)=O)cc2-c2cn(C)c(=O)c3[nH]cc1c23 (racemic) [Example 17] the molecule record lists pKi as 6.78

For Cn1cc2c3c(c[nH]c3c1=O)C(/C=C/c1ccc(F)cc1)Nc1ccc(CS(C)(=O)=O)cc1-2 (racemic) [Example 20] the molecule record lists pKi as 6.80

For CCS(=O)(=O)Nc1cnc2c(c1)-c1cn(C)c(=O)c3[nH]cc(c13)CN2c1ccc(F)cc1F [Example 23] the molecule record lists pKi as 8.77

For Cn1cc2c3c(c[nH]c3c1=O)CN(c1ccc(F)cc1)c1ccc(S(C)(=O)=O)cc1-2 [Example 8] the molecule record lists pKi as 9.19

For Cn1cc2c3c(c[nH]c3c1=O)CN(CC1CCN(C(=O)OC(C)(C)C)C1)c1ccc(CS(C)(=O)=O)cc1-2 (racemic) [Example 25] the molecule record lists pKi as 8.76

For COCCC1c2c[nH]c3c(=O)n(C)cc(c23)-c2cc(CS(C)(=O)=O)ccc2N1CC1CC1 (racemic) [Example 15] the molecule record lists pKi as 8.28

For CCCCN1Cc2c[nH]c3c(=O)n(C)cc(c23)-c2cc(CS(C)(=O)=O)ccc21 [Example 24] the molecule record lists pKi as 9.02

For Cn1cc2c3c(c[nH]c3c1=O)CNc1ccc(S(C)(=O)=O)cc1-2 [Example 4] the molecule record lists pKi as 5.70

For COC(=O)CCC1c2c[nH]c3c(=O)n(C)cc(c23)-c2cc(CS(C)(=O)=O)ccc2N1CC1CC1 (stereo not drawn) [Example 14] the molecule record lists pKi as 8.16

For CCS(=O)(=O)c1ccc2c(c1)-c1cn(C)c(=O)c3[nH]cc(c13)CN2CC1CC1 [Example 2] the molecule record lists pKi as 7.61

For Cn1cc2c3c(c[nH]c3c1=O)CN(CC1CCN(C(=O)OC(C)(C)C)CC1)c1ccc(CS(C)(=O)=O)cc1-2 [Example 28] the molecule record lists pKi as 8.96

For Cn1cc2c3c(c[nH]c3c1=O)CNc1ccc(CS(C)(=O)=O)cc1-2 [Example 5] the molecule record lists pKi as 6.12

For Cn1cc2c3c(c[nH]c3c1=O)CN(C1CCC(F)(F)CC1)c1ccc(CS(C)(=O)=O)cc1-2 [Example 30] the molecule record lists pKi as 8.30

For CCC1c2c[nH]c3c(=O)n(C)cc(c23)-c2cc(S(=O)(=O)CC)ccc2N1CC1CC1 (stereo not drawn) [Example 3] the molecule record lists pKi as 7.34
